Hey, just so you know, these numbers are from the supplement of paper PMC11451515.

Each item that follows carries a reported cell viability.
# System: SEM cells
# Experimental protocol: cell viability relative to DMSO control; higher = less cytotoxic
# Study conditions: RPMI 5 mM glucose + 10% dialyzed FBS; 48 h; 0.0632 µM
Expressed in %, but write only the number.

Some entries whose results are on file:
Asked: Param request: cell viability | system SEM cells | item `C=CCn1c(=O)c2cnc(Nc3ccc(N4CCN(C)CC4)cc3)nc2n1-c1cccc(C(C)(C)O)n1`
Given back: 90.8

Asked: Please tell me the measured cell viability for `CC(C)c1ccccc1Cc1cc(C(=O)Nc2ccc([S+](=O)([O-])c3ccccc3C(C)(C)C)cc2)c(O)c(O)c1O` ; system: SEM cells.
Given back: 120

Asked: # return cell viability of `CC(C)[C@H](CO)Nc1nc(Nc2cccc(Cl)c2)c2ncn(C(C)C)c2n1` (system: SEM cells)
Given back: 106

Asked: Write cell viability of `C[C@@H]1C[C@H]2[C@@H]3CC\C4=C\C(=O)\C=C/[C@]4(C)[C@@]3(Cl)[C@@H](O)C[C@]2(C)[C@@]1(OC(=O)C5=CC=CO5)C(=O)CCl` ; system used: SEM cells
Given back: 64.1

Asked: Report cell viability on SEM cells for this entry: `OC1=CC=C(C=C1)\C2=C\C(=O)C3=C(O2)C=C(O)C=C3O`
Given back: 111

Asked: Tell me its cell viability on SEM cells: `CCN(CC)CCN1C(=O)\C(=N/C2=CC=CC=C12)CC3=CC=C(OC)C=C3`
Given back: 94.3

Asked: Please report the measured cell viability for CC(C)NCC(O)COc1ccc(CCOCC2CC2)cc1 (stereo not drawn) tested on SEM cells.
Given back: 109

Asked: Please look at CC(NCc1ccc2c(c1)[nH]/c(=N\C(=O)c1ccc(-c3cn[nH]c3)s1)n2CC(C)(C)O)C(C)(C)C (stereo not drawn) and tell me its recorded cell viability on SEM cells.
Given back: 45.7

Asked: Report value only: cell viability, SEM cells, `CC(C)(C)NC(=O)[C@@H]1CN(Cc2cccnc2)CCN1C[C@@H](O)C[C@@H](Cc1ccccc1)C(=O)N[C@H]1c2ccccc2C[C@H]1O.O=S(=O)(O)O`
Given back: 94.9

Asked: Recall the reported cell viability of `Cc1c(C(=O)Nc2cccc(C(F)(F)F)c2)cc(-c2ccccc2)n1CCCN1CCOCC1` when tested on SEM cells.
Given back: 121

More entries:
Asked: Enter recorded cell viability with SEM cells for `CC(=O)[C@H]1CC[C@H]2[C@@H]3CCC4=CC(=O)CC[C@]4(C)[C@H]3CC[C@]12C` here.
Given back: 103

Asked: # assay system SEM cells: give cell viability of CC(C)NCC(O)c1ccc(NS(C)(=O)=O)cc1 (stereo not drawn)
Given back: 111

Asked: Print SEM cells cell viability for `C[N+](C)([O-])CCNc1ccc(NCC[N+](C)(C)[O-])c2c1C(=O)c1c(O)ccc(O)c1C2=O` .
Given back: 79.5

Asked: Name the value of cell viability reported for `CN[C@@H]1C[C@H]2O[C@@](C)([C@@H]1OC)n1c3ccccc3c3c4c(c5c6ccccc6n2c5c31)C(=O)N[C@H]4O` when tested on SEM cells.
Given back: 67.3

Asked: Please respond with reported cell viability (system SEM cells) for `CCCCCCCCc1ccc(CCC(N)(CO)CO)cc1` .
Given back: 104

Asked: Tell me its cell viability on SEM cells: CC1=C(CC/C(C)=C/CCC2=CCC(C3=CC(=O)OC3O)OC2O)C(C)(C)CCC1 (stereo not drawn)
Given back: 27.5

Asked: Provide measured cell viability on SEM cells for C[C@@H]1CC[C@@]2(OC1)OC1CC3C4CC=C5CC(O)CCC5(C)C4CCC3(C)C1[C@@H]2C (stereo partly drawn) please.
Given back: 88.6

Asked: Specify cell viability for `CC(C)(C)NC(=O)[C@H]1CC[C@H]2[C@@H]3CC[C@H]4NC(=O)\C=C/[C@]4(C)[C@H]3CC[C@]12C` , system SEM cells.
Given back: 104
